From: PubChem BioAssay (NCI)

Tested on: SF-268 CNS
Assay: NCI-60 one-dose screen, 48 h (100 = growth as untreated, 0 = no growth, -100 = all killed)
Conditions: 10 µM unless noted
Protocol: Cells are grown in 96 well plates and exposed to the test compound for 48 hours. Compounds are tested at a single concentration, which is 10^-5 M for most compounds. The reported endpoint is percent growth (GI% or GIPRCNT), where numbers from 0 - 100% represent growth inhibition, and numbers from -100% - 0 represent cell death. For example, a value of 40 represents 60% growth inhibition. A value of 0 means no net growth occurred over the course of the experiment. […]
This is part of a sample that, as a whole, favours compounds with a hit. Of some 83,000 tested, about 20% had one in any assay. Calls of active or inactive are those of the source. Rule for the calls: active = growth percent below 10; inactive = the rest.
assay_metric: growth

# annotated cases, reported growth shown
CC[C@@H]1O[C@H](O[C@@H](c2cnc[nH]2)[C@H](NC(=O)c2nc([C@H](CC(N)=O)NC[C@@H](N)C(N)=O)nc(N)c2C)C(=O)N[C@H](C)[C@H](O)[C@H](C)C(=O)N[C@@H](C(=O)NCCc2nc(-c3nc(C(=O)NCCCCN=C(N)N)cs3)cs2)[C@@H](C)O)[C@H](O[C@@H]2O[C@H](CO)[C@H](O)[C@H](OC(N)=O)[C@@H]2O)[C@H](C)[C@@H]1C = 23.1% (inactive)
COc1ccc(-c2nc(SCC(=O)Nc3ccc(C(=O)/C=C/c4ccc(Cl)cc4)cc3)[nH]c(=O)c2C#N)cc1 = 102% (inactive)
CSc1nc(NCCN2CCOCC2)c(C#N)c(-c2cccc([N+](=O)[O-])c2)n1 = 96.7% (inactive)

For the 3 molecules below, give their growth values.
1. O=C1c2cc3c(cc2-c2c1c1ccc(F)cc1c(=O)n2C[C@H](O)[C@H](O)[C@H](O)CO)OCO3
2. CC(=O)c1cc2c(N)c(C(=O)Nc3cccc(F)c3C)sc2nc1C
3. c1ccc(Cn2cc(-c3nc4ccccc4s3)c3cccnc32)cc1

Data returned:
["1.96% (active)", "94.3% (inactive)", "99% (inactive)"]

For the 5 molecules below, give their growth values.
1. O=C1c2ccccc2OC=C(c2ccccc2)N1CCCCNc1ccc(S(=O)(=O)Nc2ncccn2)cc1
2. Cn1c(NCCc2ccc(O)c(O)c2)nc2c1c(=O)n(Cc1ccc(Cl)c(Cl)c1)c(=O)n2C
3. CCCc1cc(=O)n2c(C(=O)Nc3cccc(C(=O)OCC)c3)c(C(=O)Nc3ccc(F)cc3)sc2n1
4. CC/C=C\C/C=C\C[C@H]1C/C=C2/C(=O)C=C[C@@H]2C/C=C\CCC(=O)O1
5. COc1cc2c(cc1O)CC[C@@H]1[C@@H]2CC[C@]2(C)[C@@H](OCCN(C)C)CC[C@@H]12

Data returned:
["91% (inactive)", "64.8% (inactive)", "57.5% [30 µM] (inactive)", "21% (inactive)", "56.2% (inactive)"]

For the 4 molecules below, give their growth values.
1. CCCOc1cc2ccccc2cc1C(=O)Nc1nc(N)c2c(ccc3nccc32)[nH]1
2. CC(C)C[C@@H](NC(=O)[C@@H](Cc1ccccc1)NC(=O)c1cnccn1)B1Oc2ccc(C[C@H](NC(=O)[C@H](Cc3ccc4c(c3)OB([C@@H](CC(C)C)NC(=O)[C@@H](Cc3ccccc3)NC(=O)c3cnccn3)O4)NC(=O)[C@@H](N)CC3CCC4OB([C@@H](CC(C)C)NC(=O)[C@@H](CC5CCCCC5)NC(=O)C5CNCCN5)OC4C3)C(=O)NCCCC[C@@H]3NC(=O)[C@@H](Cc4ccccc4)NC(=O)[C@H](CC(=O)O)NC(=O)CNC(=O)[C@H](CCCNC(=N)N)NC3=O)cc2O1 (stereo not given in full)
3. CC/C=C\C[C@H]1C/C=C2/C(=O)C=C[C@H]2C/C=C\CCCC(=O)O1
4. Cc1cc(N2CCCC2)nc(NC2CCCC(Nc3ccnc4cc(Cl)ccc34)C2)n1 (stereo not given)

Data returned:
["-68.6% (active)", "-52.7% (active)", "39.9% (inactive)", "-36.7% (active)"]
